Assay: CHI Log D procedure
Type: physicochemical
Details: pH 7.4, CHI Log D
Reported chromatographic logD values follow for various molecules

molecule	chromatographic logD
CC(=O)N1CCC[C@]12CC=CCCCC1(CCCC=CCCCOC(=O)N3CC[C@@](C(=O)N[C@@H](Cc4ccsc4)C(=O)N[C@@H](Cc4csc5ccccc45)C(=O)N[C@@H](CCC(N)=O)C(=O)N[C@@H](CCCCNC(=O)CCc4cc(C(F)(F)F)cc(C(F)(F)F)c4)C(N)=O)(C3)NC(=O)[C@H](CC(N)=O)NC(=O)[C@H](Cc3ccccc3)NC(=O)[C@H](C)NC(=O)[C@H](C)NC(=O)[C@H](CC(=O)O)NC(=O)[C@H](CC(=O)O)NC1=O)NC(=O)[C@H](CC(C)(C)C)NC(=O)[C@H](CC(=O)O)NC2=O (stereo partly drawn)	2.69
CC(=O)N1CCC[C@]12CC=CCCCC1(CCCC=CCCCOC(=O)N3CC[C@@](C(=O)N[C@@H](Cc4ccsc4)C(=O)N[C@@H](Cc4c[nH]c5ccc(F)cc45)C(=O)N[C@@H](Cc4c[nH]cn4)C(N)=O)(C3)NC(=O)[C@H](CC(N)=O)NC(=O)[C@H](Cc3ccccc3)NC(=O)[C@H](C)NC(=O)[C@H](C)NC(=O)[C@H](CC(=O)O)NC(=O)[C@H](CC(=O)O)NC1=O)NC(=O)[C@H](CC(C)(C)C)NC(=O)[C@H](CC(=O)O)NC2=O (stereo partly drawn)	2
CC[C@H](C)[C@@H]1NC(=O)[C@H](CC(=O)O)NC(=O)[C@]2(CC=CCCCC3(CCCC=CCCCCCC[C@@](C)(C(=O)N[C@@H](Cc4ccsc4)C(=O)N[C@@H](Cc4csc5ccccc45)C(=O)N[C@@H](Cc4c[nH]cn4)C(N)=O)NC(=O)[C@H](CC(N)=O)NC(=O)[C@H](Cc4ccccc4)NC(=O)[C@H](C)NC(=O)[C@H](C)NC(=O)[C@H](CCC(=O)O)NC(=O)[C@H](CC(=O)O)NC3=O)NC1=O)CCCN2C(C)=O (stereo partly drawn)	2.42
CC[C@H](C)[C@@H]1NC(=O)[C@H](CC(=O)O)NC(=O)[C@]2(CC=CCCCC3(CCCC=CCCCCCC[C@@](C)(C(=O)N[C@@H](Cc4ccccc4)C(=O)N[C@@H](Cc4csc5ccccc45)C(=O)N[C@@H](Cc4c[nH]cn4)C(N)=O)NC(=O)[C@H](CCC(N)=O)NC(=O)[C@H](Cc4cccs4)NC(=O)[C@H](C)NC(=O)[C@H](C)NC(=O)[C@H](CCC(=O)O)NC(=O)[C@H](CC(=O)O)NC3=O)NC1=O)CCCN2C(C)=O (stereo partly drawn)	2.4
CC(=O)N[C@@H](Cc1ccccc1)C(=O)N[C@@H](CC(=O)O)C(=O)N[C@@H](C)C(=O)N[C@]1(C)CCCCCCC=CCOC(=O)N2CC[C@@](C(=O)N[C@@H](Cc3ccccc3)C(=O)N[C@@H](Cc3c[nH]c4ccccc34)C(=O)N[C@@H](CCC(N)=O)C(N)=O)(C2)NC(=O)[C@H](C(C)C)NC(=O)[C@H](Cc2cccc(C(N)=O)c2)NC(=O)[C@H](C)NC(=O)[C@H](C)NC(=O)[C@H](CC(=O)O)NC(=O)[C@H](CC(=O)O)NC1=O (single isomer, unassigned)	1.15
CC(=O)N1CCC[C@]12CC=CCCCC1(CCCC=CCCCCCC[C@@](C)(C(=O)N[C@@H](Cc3ccccc3)C(=O)N[C@@H](Cc3c[nH]c4c(F)cccc34)C(=O)N[C@@H](CCC(N)=O)C(N)=O)NC(=O)[C@H](C(C)C)NC(=O)[C@H](Cc3ccccc3)NC(=O)[C@H](C)NC(=O)[C@H](C)NC(=O)[C@H](CCC(=O)O)NC(=O)[C@H](CC(=O)O)NC1=O)NC(=O)[C@H](C)NC(=O)[C@H](CC(=O)O)NC2=O (stereo partly drawn)	2.06
CC(=O)N1CCC[C@]12CC=CCCCC1(CCCC=CCCCCCC[C@@](C)(C(=O)N[C@@H](Cc3ccccc3)C(=O)NC(Cc3cccc4cc(F)ccc34)C(=O)N[C@@H](CCC(N)=O)C(N)=O)NC(=O)[C@H](C(C)C)NC(=O)[C@H](Cc3ccccc3)NC(=O)[C@H](C)NC(=O)[C@H](C)NC(=O)[C@H](CCC(=O)O)NC(=O)[C@H](CC(=O)O)NC1=O)NC(=O)[C@H](C)NC(=O)[C@H](CC(=O)O)NC2=O (stereo partly drawn)	2.18
CC(=O)N1CCC[C@]12CC=CCCCC1(CCCC=CCCCCCC[C@@](C)(C(=O)N[C@@H](Cc3ccccc3)C(=O)N[C@@H](Cc3c[nH]c4ccc(C(F)(F)F)cc34)C(=O)N[C@@H](CCC(N)=O)C(N)=O)NC(=O)[C@H](C(C)C)NC(=O)[C@H](Cc3ccccc3)NC(=O)[C@H](C)NC(=O)[C@H](C)NC(=O)[C@H](CCC(=O)O)NC(=O)[C@H](CC(=O)O)NC1=O)NC(=O)[C@H](C)NC(=O)[C@H](CC(=O)O)NC2=O (stereo partly drawn)	2.18
CC(=O)N1CCC[C@]12CC=CCCCC1(CCCC=CCCCCCC[C@@](C)(C(=O)N[C@@H](Cc3cccc(F)c3)C(=O)N[C@@H](Cc3csc4ccccc34)C(=O)N[C@@H](CCC(N)=O)C(N)=O)NC(=O)[C@H](CCC(N)=O)NC(=O)[C@H](Cc3ccsc3)NC(=O)[C@H](C)NC(=O)[C@H](C)NC(=O)[C@H](CCC(=O)O)NC(=O)[C@H](CC(=O)O)NC1=O)NC(=O)[C@H](C)NC(=O)[C@H](CC(=O)O)NC2=O (stereo partly drawn)	2.07
